B1: tRNA (parent)
chain: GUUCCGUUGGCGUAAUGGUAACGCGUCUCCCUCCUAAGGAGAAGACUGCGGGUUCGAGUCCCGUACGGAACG

variants of: B1; test: yeast fitness relative to wild type (ratio to wild type); higher = fitter; tRNA-Arg(CCU), competitive growth, 37 C, YPD
This sample holds only a part of the variants without activity.
PARAMETER MEASURED: yeast fitness

Reference set, count: 5
// returns reported yeast fitness for input A20G C60A U64A C66U
≤ 0.5

Also, C11G A14G A15U G23C G68C please.
≤ 0.5

Also, A45C C60A please.
0.62

Also, C11U U53A C62A please.
≤ 0.5

Also, C33A G38C C46A G58C please.
0.698

More entries:
// returns reported yeast fitness for input C29U U32G A43U G44C C61U
0.509

Also, C4U C46A G67C please.
≤ 0.5
